- target.or.system: Hck (UniProt P08631)
- Sequence (P08631 whole entry, looked up): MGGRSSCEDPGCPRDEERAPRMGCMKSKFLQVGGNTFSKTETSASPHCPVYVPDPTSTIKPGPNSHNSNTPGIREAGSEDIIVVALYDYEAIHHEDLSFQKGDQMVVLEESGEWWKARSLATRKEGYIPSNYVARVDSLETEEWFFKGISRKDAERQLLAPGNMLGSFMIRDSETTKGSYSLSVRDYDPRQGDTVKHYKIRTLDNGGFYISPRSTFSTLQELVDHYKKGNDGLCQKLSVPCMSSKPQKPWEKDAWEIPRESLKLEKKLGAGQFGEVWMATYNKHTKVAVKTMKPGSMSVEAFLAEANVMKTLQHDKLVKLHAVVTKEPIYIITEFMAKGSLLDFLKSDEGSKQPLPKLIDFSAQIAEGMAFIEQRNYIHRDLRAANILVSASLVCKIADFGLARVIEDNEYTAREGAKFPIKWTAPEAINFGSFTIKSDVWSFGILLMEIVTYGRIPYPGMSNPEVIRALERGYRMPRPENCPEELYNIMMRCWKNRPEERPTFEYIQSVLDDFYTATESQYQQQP
- measurement.protocol: phosphorylation enrichment, bacterial display (enrichment ratio); higher = better substrate or ligand; peptides without Tyr show the background;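 also: 11-residue human phosphosite peptides and single-mutation variants displayed on the E. coli surface, counted by deep sequencing, each peptide's frequency after selection divided by its frequency in the unselected input library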;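 also: frequency after pTyr selection over input frequency; kinase dosed for 20-30% of maximal phosphorylation in three min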
Threshold rule: phosphorylation enrichment greater than or equal to 0.5 is 1; below that, 0.

Observe how each entry below is paired with its result.
# sequence.data, label
data = [
    ("KRIKSYNQEND [RPGRIP1L_Y448_L447S]", 0),
    ("PLDGEYFTRQI [TP53_Y327_L330R]", 1),
    ("VTAALYGCLFE [BTD_Y536_R538C_YF]", 1),
    ("SPPPAYTPMSG [ERBB4_Y1056]", 0),
    ("LLSISYVGCSL [ADGRD1_Y571_S567L]", 1),
]

[in] Textbook exercise: given the entry IGHHAYGDQFR [IDH1_Y135_R132H_YF] , state whether its phosphorylation enrichment is greater than or equal to 0.5.
[out] 0

[in] Textbook exercise: given the entry IVKAYYVRARA [AIPL1_Y268] , state whether its phosphorylation enrichment is greater than or equal to 0.5.
[out] 0

[in] Textbook exercise: given the entry LEIETCRRLLD [KRT12_Y429_Y429C] , state whether its phosphorylation enrichment is greater than or equal to 0.5.
[out] 1

[in] Textbook exercise: given the entry QEEPEYWDQET [HLA-A_Y83_G80E] , state whether its phosphorylation enrichment is greater than or equal to 0.5.
[out] 1

[in] Textbook exercise: given the entry KVDKECEVRVR [GHR_Y226_Y226C] , state whether its phosphorylation enrichment is greater than or equal to 0.5.
[out] 0

====

- target.or.system: Fes (UniProt P07332)
- Sequence (P07332 whole entry, looked up): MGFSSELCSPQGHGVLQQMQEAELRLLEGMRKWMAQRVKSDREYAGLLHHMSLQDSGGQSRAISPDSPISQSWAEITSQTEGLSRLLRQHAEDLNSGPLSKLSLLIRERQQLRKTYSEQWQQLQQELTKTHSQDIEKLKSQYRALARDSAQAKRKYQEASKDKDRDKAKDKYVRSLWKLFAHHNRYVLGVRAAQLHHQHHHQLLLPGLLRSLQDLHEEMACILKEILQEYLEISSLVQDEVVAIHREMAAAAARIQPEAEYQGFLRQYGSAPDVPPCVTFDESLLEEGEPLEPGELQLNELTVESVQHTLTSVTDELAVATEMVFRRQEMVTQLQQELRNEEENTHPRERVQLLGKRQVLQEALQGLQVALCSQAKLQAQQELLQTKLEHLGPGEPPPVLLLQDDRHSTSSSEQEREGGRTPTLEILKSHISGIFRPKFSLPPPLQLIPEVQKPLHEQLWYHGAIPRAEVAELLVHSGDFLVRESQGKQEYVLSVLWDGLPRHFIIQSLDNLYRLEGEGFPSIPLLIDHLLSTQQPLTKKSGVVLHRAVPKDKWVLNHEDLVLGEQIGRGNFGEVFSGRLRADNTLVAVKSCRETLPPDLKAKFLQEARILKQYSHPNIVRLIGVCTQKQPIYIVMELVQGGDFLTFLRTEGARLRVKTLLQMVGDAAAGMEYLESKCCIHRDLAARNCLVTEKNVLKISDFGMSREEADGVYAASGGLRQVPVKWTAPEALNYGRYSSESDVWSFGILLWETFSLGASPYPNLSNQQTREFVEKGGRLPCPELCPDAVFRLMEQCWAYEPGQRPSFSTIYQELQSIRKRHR
- measurement.protocol: phosphorylation enrichment, bacterial display (enrichment ratio); higher = better substrate or ligand; peptides without Tyr show the background
Threshold rule: phosphorylation enrichment greater than or equal to 1 is true; below that, false.

Observe how each entry below is paired with its result.
# sequence.data, label
data = [
    ("NKVFTYIFIME [SCN4A_Y1074_D1069N]", "true"),
    ("VIKDKYPKARY [APTX_Y209]", "false"),
    ("LIEQAYDNPHE [PRPF8_Y871]", "true"),
]

[in] Textbook exercise: given the entry MDDDQYALLTT [EFCAB6_Y675] , state whether its phosphorylation enrichment is greater than or equal to 1.
[out] true

[in] Textbook exercise: given the entry MAFDRYAAICS [OR8H2_Y123_H120Y_YF] , state whether its phosphorylation enrichment is greater than or equal to 1.
[out] true

[in] Textbook exercise: given the entry GTFVIYVRFSG [FLNB_Y1687_G1691S_YF] , state whether its phosphorylation enrichment is greater than or equal to 1.
[out] true

[in] Textbook exercise: given the entry SVCPDYDLCSI [SQSTM1_Y148_V153I] , state whether its phosphorylation enrichment is greater than or equal to 1.
[out] true

[in] Textbook exercise: given the entry TTKGSYSLYVR [HCK_Y180_S183Y] , state whether its phosphorylation enrichment is greater than or equal to 1.
[out] true

[in] Textbook exercise: given the entry PKFHSYVSLPF [PLXNA2_Y293] , state whether its phosphorylation enrichment is greater than or equal to 1.
[out] true

[in] Textbook exercise: given the entry FETDFYQKGGK [INSR_Y1190_R1191Q_YF] , state whether its phosphorylation enrichment is greater than or equal to 1.
[out] false

[in] Textbook exercise: given the entry GLDSSYLLRDS [SH2D1A_Y29_G27S] , state whether its phosphorylation enrichment is greater than or equal to 1.
[out] false
